experiment: Clearance in Sinclair Lab dog at 1 mg/kg,iv and measured after 72 hrs by LC/MS/MS analysis
Format: ADME, organism-based, Canis lupus familiaris
test_context: in vivo
property: clearance

The recorded clearance for entry `CN1CCCC[C@H](N(c2cc(C#CC(C)(C)C)sc2C(=O)O)C(=O)[C@H]2CC[C@H](C)CC2)C1=O` equals 15 mL/min/kg

---

experiment: Volume of distribution at steady state in Sprague-Dawley rat at 0.5 mg/kg,iv and measured after 72 hrs by LC/MS/MS analysis
Assay type: ADME, organism-based
test_context: in vivo, read-out: Vdss
property: Vd

CN1CCC[C@H](N(c2cc(C#CC(C)(C)C)sc2C(=O)O)C(=O)[C@H]2CC[C@H](C)CC2)C1=O | 1.17 L/kg

Please look at the following compound next.
get_value(item= `CN1CCC[C@@H](N(c2cc(C#CC(C)(C)C)sc2C(=O)O)C(=O)[C@H]2CC[C@H](C)CC2)C1=O` , readout=Vd) returns 0.221 L/kg

---

tested_target: UniProt:P08684
Sequence (P08684 whole entry): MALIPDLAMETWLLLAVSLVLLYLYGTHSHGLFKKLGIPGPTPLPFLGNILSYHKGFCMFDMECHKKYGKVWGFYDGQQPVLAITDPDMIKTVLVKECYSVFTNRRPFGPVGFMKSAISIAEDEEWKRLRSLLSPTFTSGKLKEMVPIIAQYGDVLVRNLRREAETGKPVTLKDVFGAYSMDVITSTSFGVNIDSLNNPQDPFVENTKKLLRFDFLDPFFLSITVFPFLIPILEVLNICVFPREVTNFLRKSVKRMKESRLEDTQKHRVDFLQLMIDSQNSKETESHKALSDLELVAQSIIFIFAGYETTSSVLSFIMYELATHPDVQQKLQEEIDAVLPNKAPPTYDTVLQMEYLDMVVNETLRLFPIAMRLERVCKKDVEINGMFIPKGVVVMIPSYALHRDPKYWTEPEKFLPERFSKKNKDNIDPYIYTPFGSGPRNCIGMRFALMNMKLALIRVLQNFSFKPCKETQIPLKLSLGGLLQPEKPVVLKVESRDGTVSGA
property: IC50

Item: `CN1CCCC[C@H](N(c2cc(C#CC(C)(C)C)sc2C(=O)O)C(=O)[C@H]2CC[C@H](C)CC2)C1=O` | IC50: > 30 µM

---

experiment: AUC (0 to infinity) in Sinclair Lab dog at 1 mg/kg,iv and measured after 72 hrs by LC/MS/MS analysis
Format: ADME, organism-based, Canis lupus familiaris
Parameters: time 72 hrs, dose 1 mg/kg, route iv
test_context: in vivo
property: AUC(0-inf) (ng·h/mL)
Answers are plain numbers, in ng·h/mL.

Note to self: AUC(0-inf) recorded for `CN1CCCC[C@H](N(c2cc(C#CC(C)(C)C)sc2C(=O)O)C(=O)[C@H]2CC[C@H](C)CC2)C1=O` was 1450

---

experiment: Half life in Cynomolgus monkey at 1 mg/kg,iv and measured after 72 hrs by LC/MS/MS analysis
Format: ADME, organism-based, Macaca fascicularis
test_context: in vivo
property: half-life
# output: number + unit

Documented half-life of `CN1CCCC[C@H](N(c2cc(C#CC(C)(C)C)sc2C(=O)O)C(=O)[C@H]2CC[C@H](C)CC2)C1=O` : 5.44 h

---

experiment: AUC (0 to infinity) in Sprague-Dawley rat at 3 mg/kg,po and measured after 72 hrs by LC/MS/MS analysis
Type: ADME, organism-based
Parameters: time 72 hrs, dose 3 mg/kg, route po
test_context: in vivo
property: AUC(0-inf) (ng·h/mL)
Numbers only, in ng·h/mL.

See these solved cases before continuing.
CN1CCCC[C@H](N(c2cc(C#CC(C)(C)C)sc2C(=O)O)C(=O)[C@H]2CC[C@H](C)CC2)C1=O | 3820
CN1CC[C@@H](N(c2cc(C#CC(C)(C)C)sc2C(=O)O)C(=O)[C@H]2CC[C@H](C)CC2)C1=O | 3320
CN1CCCC[C@@H](N(c2cc(C#CC(C)(C)C)sc2C(=O)O)C(=O)[C@H]2CC[C@H](C)CC2)C1=O | 3530

Next up:
Item: `CN1CC[C@H](N(c2cc(C#CC(C)(C)C)sc2C(=O)O)C(=O)[C@H]2CC[C@H](C)CC2)C1=O` | AUC(0-inf): 176

---

experiment: Oral bioavailability in Sprague-Dawley rat at 3 mg/kg and measured after 72 hrs by LC/MS/MS analysis
Type: ADME, organism-based
test_context: in vivo
Answer each item with its documented bioavailability.
Your reply should be a number followed by the unit it is expressed in.

Please review the following examples before continuing.
CN1CCCC[C@@H](N(c2cc(C#CC(C)(C)C)sc2C(=O)O)C(=O)[C@H]2CC[C@H](C)CC2)C1=O | 122%
CN1CC[C@H](N(c2cc(C#CC(C)(C)C)sc2C(=O)O)C(=O)[C@H]2CC[C@H](C)CC2)C1=O | 26%
CN1CC[C@@H](N(c2cc(C#CC(C)(C)C)sc2C(=O)O)C(=O)[C@H]2CC[C@H](C)CC2)C1=O | 64%

Below: the item to evaluate.
Quick note, bioavailability for `CN1CCCC[C@H](N(c2cc(C#CC(C)(C)C)sc2C(=O)O)C(=O)[C@H]2CC[C@H](C)CC2)C1=O` landed at 97%
